- Test system: SNB-19 CNS
- method: NCI-60 one-dose screen, 48 h
- assay.context: 10 µM unless noted
This is part of a sample that, as a whole, favours compounds with a hit. Of some 83,000 tested, about 20% had one in any assay. Activity calls are given as the source filed them. How the source made its calls: active means growth percent below 10; inactive means the rest.
The reply should name one outcome from active, inactive

q: Please state the recorded outcome for this compound: `Cc1cc(Nc2ncnc3ccc(NC4=NC(C)(C)CO4)cc23)ccc1Oc1ccn2ncnc2c1`
a: inactive

q: Now try C=CC(=O)N(C)[C@H]1C[C@H]2OC(C)(C1OC)n1c3ccccc3c3c4c(c5c6ccccc6n2c5c31)C(=O)NC4 (stereo not given in full) .
a: active

q: Now try `CN[C@@H]1C[C@H]2O[C@@](C)([C@@H]1OC)n1c3ccccc3c3c4c(c5c6ccccc6n2c5c31)C(=O)N[C@H]4O` .
a: active

q: Now try `CC(=O)Oc1ccccc1C(=O)N=C1[Se]CCN1C(=O)c1ccccc1OC(C)=O` .
a: active

q: Now try `COc1ccc2c(CCc3ccc(Cl)cc3)c3[n+](cc2c1OC)CCc1cc2c(cc1-3)OCO2` .
a: inactive

q: Now try `N#Cc1cc2[nH]c3ccc(OC(F)(F)F)cc3c2oc1=O` .
a: inactive

q: Now try CC[C@@H]1C(=O)N(C)c2cnc(Nc3ccc(C(=O)NC4CCC(N5CCN(CC6CC6)CC5)CC4)cc3OC)nc2N1C(C)C (stereo not given in full) .
a: inactive

q: Now try `O=C(NOC[C@H](O)CO)c1ccc(F)c(F)c1Nc1ccc(I)cc1F` .
a: inactive

q: Now try `Cc1oc2c(C(=O)N/N=C\c3ccc(O)cc3O)c[nH]c2c1C` .
a: inactive

q: Now try `CCc1ccc(C2=C(O)C(=O)C(c3ccc(CC)cc3)=C(O)C2=O)cc1` .
a: active

q: Now try `O=C(/C=C/c1ccc2c(c1)OCO2)c1c(O)c2ccccc2oc1=O` .
a: inactive

q: Now try O=C1C=CC2(NN=C(c3ccccc3)N2c2cccc(Cl)c2)c2cccc(O)c21 (stereo not given) .
a: inactive

q: Now try O=C1CSC(c2c(F)cccc2Cl)N1NC(=O)C(O)(c1ccccc1)c1ccccc1 (stereo not given) .
a: inactive

q: Now try `COCCOc1cnc2ccn([C@H](C)c3nnc4c(F)cc(-c5cnn(C)c5)cn34)c(=O)c2c1` .
a: inactive

q: Now try `C=CC[n+]1c(/C=C2\Sc3ccccc3N2C)sc(-c2ccccc2)c1-c1ccccc1` .
a: inactive

q: Now try `C[N+](C)(CCOC(c1ccccc1)c1ccccc1)CC(=O)OCc1ccccc1` .
a: inactive

q: Now try `Cn1ccnc1C(=O)/C=C/c1ccc(CC(=O)Nc2ccc(Br)cc2)cc1` .
a: inactive

q: Now try `Cc1cccc(Cl)c1NC(=O)c1cnc(Nc2cc(N3CCOCC3)cc(S(C)(=O)=O)c2)s1` .
a: inactive

q: Now try `COc1ccc(-c2nc(N)ncc2Oc2ccccc2OC)c(O)c1` .
a: inactive

q: Now try `O=C(Cn1c(=O)ccn(CCCCCCCCOc2ccc(Br)cc2)c1=O)Nc1ccc(Oc2ccc(Cl)cc2)cc1` .
a: inactive
